Data provenance is ChEMBL document CHEMBL1157840.

Tested on: Nakaseomyces glabratus
ASSAY_INFO: Antifungal activity against Candida glabrata clinical isolate 1 after 24 hrs by broth microdilution assay
Format: functional
CONDITIONS_USED: isolate 1, 24 h
The compounds listed here are annotated with their MIC.
Write down the numeric answer in µg/mL and omit the unit.

Example cases with answers are listed next.
N#Cc1ccc(/C=N/NC(=O)c2cn3c(n2)CCCC3)cc1 ... 0.032
O=C(N/N=C/c1ccc([N+](=O)[O-])cc1)c1cn2c(n1)CCCC2 ... 0.5
COC1=CC(=O)C[C@@H](C)[C@]12Oc1c(Cl)c(OC)cc(OC)c1C2=O ... 0.25

Exercise: Give its MIC value. Item: CC(=O)N1CCN(c2ccc(OCC3COC(Cn4ccnc4)(c4ccc(Cl)cc4Cl)O3)cc2)CC1 (stereo unspecified)
Solution: 0.125

Exercise: Next record, please: O=C(N/N=C/c1ccc(Br)cc1)c1cn2c(n1)CCCC2
Solution: 0.5

###

Test system: [Candida] zeylanoides
ASSAY_INFO: Antifungal activity against Candida zeylanoides NRRL Y-1774 after 24 hrs by broth microdilution assay
Type: functional
CONDITIONS_USED: Dujonia zeylanoides, NRRL Y-1774, 24 h
MEASURE_NAME: MIC (µg/mL)
Write down the numeric answer in µg/mL and omit the unit.

Exercise: Give its MIC value. Item: COC1=CC(=O)C[C@@H](C)[C@]12Oc1c(Cl)c(OC)cc(OC)c1C2=O
Solution: 0.5

Exercise: Next record, please: CC(=O)N1CCN(c2ccc(OCC3COC(Cn4ccnc4)(c4ccc(Cl)cc4Cl)O3)cc2)CC1 (stereo unspecified)
Solution: 0.5

Exercise: Next record, please: O=C(N/N=C/c1ccc([N+](=O)[O-])cc1)c1cn2c(n1)CCCC2
Solution: 0.25

Exercise: Next record, please: Clc1ccccc1C(c1ccccc1)(c1ccccc1)n1ccnc1
Solution: 0.125

Exercise: Next record, please: N#Cc1ccc(/C=N/NC(=O)c2cn3c(n2)CCCC3)cc1
Solution: 0.032

Exercise: Next record, please: O=C(N/N=C/c1ccc(Br)cc1)c1cn2c(n1)CCCC2
Solution: 1

###

Tested on: Candida albicans
ASSAY_INFO: Antifungal activity against Candida albicans ATCC 90028 after 24 hrs by broth microdilution assay
Assay type: functional
CONDITIONS_USED: ATCC 90028, 24 h
MEASURE_NAME: MIC (µg/mL)
Write down the numeric answer in µg/mL and omit the unit.

N#Cc1ccc(/C=N/NC(=O)c2cn3c(n2)CCCC3)cc1 ... 0.063
O=C(N/N=C/c1ccc([N+](=O)[O-])cc1)c1cn2c(n1)CCCC2 ... 0.5
CC(=O)N1CCN(c2ccc(OCC3COC(Cn4ccnc4)(c4ccc(Cl)cc4Cl)O3)cc2)CC1 (stereo not given) ... 0.063
O=C(N/N=C/c1ccc(Cl)cc1)c1cn2c(n1)CCCC2 ... 0.5

# input for lookup
Exercise: Give its MIC value. Item: O=C(N/N=C/c1ccc(Br)cc1)c1cn2c(n1)CCCC2
Solution: 0.5

###

System: Vero
ASSAY_INFO: Cytotoxicity against african green monkey Vero cells up to 25 ug/ml after 48 hrs by neutral red assay
Type: cell-based
CONDITIONS_USED: chlorocebus sabaeus
MEASURE_NAME: Activity

CC(=O)N1CCN(c2ccc(OCC3COC(Cn4ccnc4)(c4ccc(Cl)cc4Cl)O3)cc2)CC1 (stereo unspecified) [KETOCONAZOLE] ... Non-toxic
O=C(N/N=C/c1ccc([N+](=O)[O-])cc1)c1cn2c(n1)CCCC2 ... Non-toxic
N#Cc1ccc(/C=N/NC(=O)c2cn3c(n2)CCCC3)cc1 ... Non-toxic
COC1=CC(=O)C[C@@H](C)[C@]12Oc1c(Cl)c(OC)cc(OC)c1C2=O [GRISEOFULVIN] ... Non-toxic
Clc1ccccc1C(c1ccccc1)(c1ccccc1)n1ccnc1 [CLOTRIMAZOLE] ... Non-toxic

# input for lookup
Exercise: Give its Activity value. Item: O=C(N/N=C/c1ccc(Cl)cc1)c1cn2c(n1)CCCC2
Solution: Non-toxic
